- TESTED SYSTEM: T1, His-tagged human TIGIT (human, UniProt Q495A1 22-141)
- T1 construct: SPR analyte; also called human TIGIT protein; not shown: His tag
- T1 sequence: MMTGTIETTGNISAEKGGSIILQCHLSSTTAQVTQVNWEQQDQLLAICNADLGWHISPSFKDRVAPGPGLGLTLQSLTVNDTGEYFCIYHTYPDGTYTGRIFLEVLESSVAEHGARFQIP
- EXPERIMENT DESCRIPTION: SPR (Biacore T200), antibody captured, His-tagged TIGIT analyte
ASSAY ENDPOINT: koff (s⁻¹)
Give bare numbers, in s⁻¹.

BINDER	UNITS LABEL	koff
huTIGIT-19-3 (antibody, human IgG1, kappa, V domains shown, Humanized IgG; also called 19VH4.M10 + 19VL1.M4) VH: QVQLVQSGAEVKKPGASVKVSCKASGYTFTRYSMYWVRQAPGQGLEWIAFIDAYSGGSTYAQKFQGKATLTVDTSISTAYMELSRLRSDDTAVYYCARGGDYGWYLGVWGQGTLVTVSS VL: DIQMTQSPSSLSASVGDRVTITCRPSENIYTYLSWYQQKPGKAPKLLIYNAKSLPSGVPSRFSGSGSGTDFTLTISSLQPEDFATYYCQHHYGNPLTFGQGTKVEIKR	s⁻¹	0.0003

Give me koff for each of these binders, listed below.
1. huTIGIT-6-3 (antibody, human IgG1, kappa, V domains shown, Humanized IgG; also called 6VH6.M6 + 6VL1.M1) VH: QVQLVQSGAEVKKPGASVKVSCKASGYTFTENAMHWVRQAPGQRLEWIGGINPNQGGTSYSQKFQGRATLTVDTSASTAYMELSSLRSEDTAVYYCTRSSYYRYDLDYWGQGTTVTVSS VL: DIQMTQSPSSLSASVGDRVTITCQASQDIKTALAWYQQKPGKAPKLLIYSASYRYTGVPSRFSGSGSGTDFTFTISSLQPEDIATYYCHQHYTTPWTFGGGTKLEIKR
2. Hu1217-2-2 (anti-TIGIT positive control antibody) (antibody, V domains shown) VH: EVQLVESGGGLVQPGGSLRLSCAASGFTFSDYYMYWVRQAPGKGLEWVAYITKGGGSTYYPDSVKGRFTISRDNAKNTLYLQMNSLRAEDTAVYYCARQTNYDFTMDYWGQGTLVTVSS VL: EIVMTQSPATLSVSPGERATLSCKASQDVGTSVAWYQQKPGQAPRLLIYWASARHTGIPARFSGSGSGTEFTLTISSLQSEDFAVYYCQQYSSYPLTFGGGTKVEIK
3. huTIGIT-19-1 (antibody, human IgG1, kappa, V domains shown, Humanized IgG; also called 19VH4.M9 + 19VL1.M4) VH: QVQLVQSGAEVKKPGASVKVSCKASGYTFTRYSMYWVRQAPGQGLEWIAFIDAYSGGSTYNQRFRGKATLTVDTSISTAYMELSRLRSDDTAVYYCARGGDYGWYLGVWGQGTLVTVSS VL: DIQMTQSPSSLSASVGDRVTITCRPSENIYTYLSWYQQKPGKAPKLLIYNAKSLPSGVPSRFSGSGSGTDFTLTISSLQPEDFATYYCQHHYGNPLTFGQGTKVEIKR
4. huTIGIT-6-4 (antibody, human IgG1, kappa, V domains shown, Humanized IgG; also called 6VH6.M7 + 6VL1.M1) VH: QVQLVQSGAEVKKPGASVKVSCKASGYTFTENAMHWVRQAPGQRLEWIGGINPNNAGTSYSQKFQGRATLTVDTSASTAYMELSSLRSEDTAVYYCTRSSYYRYDLDYWGQGTTVTVSS VL: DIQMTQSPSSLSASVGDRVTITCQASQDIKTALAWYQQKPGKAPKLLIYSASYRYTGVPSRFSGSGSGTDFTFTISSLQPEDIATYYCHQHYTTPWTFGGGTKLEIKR

Key:
1. 9.8e-05
2. 5.1e-05
3. 0.00019
4. 0.00019

Exercise: Recorded koff of TIGIT-6 chimeric antibody (antibody, human IgG1, kappa, V domains shown, also called 6VH + 6VL) VH: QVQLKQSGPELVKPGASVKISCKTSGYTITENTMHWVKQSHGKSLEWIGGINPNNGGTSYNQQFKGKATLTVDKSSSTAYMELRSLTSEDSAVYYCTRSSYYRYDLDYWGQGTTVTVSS VL: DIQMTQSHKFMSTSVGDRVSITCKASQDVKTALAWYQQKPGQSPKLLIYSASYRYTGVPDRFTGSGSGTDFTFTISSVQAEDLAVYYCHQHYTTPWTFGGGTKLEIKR , please.
Key: 9e-05
